parameter measured: melting point

COc1nc(C)c(CC2CC2)c(C(O)c2cc(Cl)cc(C#N)c2)c1C(C)C (centres undefined) | 237 to 238 °C
COC(OC)C1CCC2C3CCC4CC(O)CCC4(C)C3C(=O)CC12C (centres undefined) | 136 to 142 °C
CC(C)(C)OC(=O)NC(CO)C(c1ccccc1)c1ccccc1 (centres undefined) | 95 to 96 °C
CCOC(=O)CNc1ncccc1NC(=O)c1cccc(Cl)c1 | 143 to 144 °C
COc1ccc(-n2nc(C(=O)CCCO)cc2-c2ccc(S(C)(=O)=O)cc2)cc1 | 125 to 127 °C
CC(=O)OCc1cc(N)ccc1N1C(=O)c2ccc(Cl)cc2C1=O | 136 to 138 °C
CC(=O)NC[C@H]1CN(c2ccc3c(c2)CCC(C)N3C(=O)OCc2ccccc2)C(=O)O1 (some centres undefined) | 126 to 129 °C
CCN1CCN(Cc2ccc(-c3nc4cc(OC)cc(OC)c4c(=O)[nH]3)cc2)CC1 | 278 to 280 °C
Cn1nc2ccc(OCCCN3CCC(OC(c4ccccc4)c4ccccc4)CC3)nn2c1=O | 139 to 140 °C

Data origin, for the record: a melting point compilation (Tetko et al.; mined from patent text by program, amines drawn as free bases though some values may be those of a salt)
